tested on: SW620 tumor organoids; experiment: Tumor organoid cytotoxicity (CellTiter-Glo 3D); conditions: Homo sapiens, SW-620, read-out: Tumor Organoid Cytotoxicity IC50 (μM) SW620
Outcome measure: IC50 (µM)
Note: unit µM is implicit; provide only the numeric part.

Exercise: Fill in IC50 for record Cc1cc(Oc2ccc(NC(=O)c3c[nH]c4ccccc34)cc2)nc(N2CCCC2)n1 [Compound 6.14]
Key: 10.4

Exercise: Hello, please tell me recorded IC50 for this one: Cc1cc(Nc2ccc(NC(=O)/C=C/c3c[nH]c4ccccc34)cc2)nc(N2CCCC2)n1 [Compound 6.8]
Key: 3.6

Exercise: Provide IC50 value for the following compound: Cc1cc(Nc2ccc(NC(=O)c3c[nH]c4ccccc34)cc2)nc(N2CCCC2)n1 [Compound 6.3]
Key: 3.8

Exercise: Please indicate IC50 recorded for Cc1cc(Nc2ccc(NC(=O)Cn3cc(CC4CC4)c4ccccc43)cc2)nc(N2CCCC2)n1 [Compound 6.26]
Key: 5.5

Exercise: State its IC50 for this compound: Cc1cc(Nc2ccc(NC(=O)Cc3c[nH]c4ccc(O)cc34)cc2)nc(N2CCCC2)n1 [Compound 6.25]
Key: 19.7

Exercise: // Input: Cc1cc(Nc2ccc(NC(=O)c3c[nH]c4ncccc34)cc2)nc(N2CCCC2)n1 [Compound 6.9] . Output its IC50 only.
Key: 8.1

Exercise: Identify measured IC50 corresponding to CCc1ccc2[nH]cc(CC(=O)Nc3ccc(Nc4cc(C)nc(N5CCCC5)n4)cc3)c2c1 [Compound 6.27]
Key: 2.1

Exercise: For Cc1cc(Nc2ccc(NC(=O)Cn3ccc4ccccc43)cc2)nc(N2CCCC2)n1 [Compound 6.24] , write its IC50.
Key: 2.7
